Attribution: PubChem BioAssay (NCATS)

Tested on: Zika virus NS2B-NS3 protease
Experiment: Primary screen GU AMC qHTS for Zika virus inhibitors (AID 1347154); also: nearly all actives have a fitted effect of over 70% in size
Settings: Zika NS2B-NS3 unlinked protease, AMC fluorogenic substrate; series mostly up to 54.1 µM
Inconclusive results are not listed. Active and inactive are the calls of the source. Calls follow the shape of the dose curve; as a rule, active = well fitted inhibition curve with a large enough effect; inconclusive = small, poorly fitted or top-dose-only effect; inactive = flat fitted curve, though single readings scatter.
API: response.call in Yes = active, No = inactive

# Compound, Label value
data = [
    ("CCc1cc2cc(OC)c(OC)cc2c(Cc2ccccc2)n1", "No"),
    ("CC(=O)Nc1ccc(S(=O)(=O)Nc2cc(C)on2)cc1", "No"),
    ("CCN(CC)CC(=O)Oc1ccc(NC(C)=O)cc1", "No"),
    ("Nc1c2ccccc2nc2ccccc12", "Yes"),
]

Exam item: // param item: CC(=O)O[C@@H]1C(=O)O[C@@H]2[C@H]1OC(=O)[C@@H]2OC(C)=O ; yields the recorded call
Marked response: No

Exam item: Record: Cc1ccc(O)cc1
Marked response: No

Exam item: Ok, now CN1CC[C@H](c2c(O)cc(O)c3c(=O)cc(-c4ccccc4Cl)oc23)[C@H](O)C1
Marked response: No

Exam item: Another compound to check: CCOC(=O)O[C@]1(C(=O)OCCl)CC[C@H]2[C@@H]3CCC4=CC(=O)C=C[C@]4(C)[C@H]3[C@@H](O)C[C@@]21C
Marked response: No

Exam item: Entry to check: NS(=O)(=O)c1cc2c(cc1Cl)CN(C1CCCCC1)C2=O
Marked response: No

Exam item: Same read-out for COCCc1ccccn1 ?
Marked response: No

Exam item: For C/C=C(/C(=C/C)c1ccc(OC(C)=O)cc1)c1ccc(OC(C)=O)cc1 then?
Marked response: No

Exam item: Consider next the compound COC(=O)CCCCC(CCSS/C(CCO)=C(\C)N(C=O)Cc1cnc(C)nc1N)SC(C)=O (stereo not drawn) in the same way.
Marked response: No

Exam item: Subsequent entry: CC1CC(=O)NN=C1c1ccc(NCC(C)(C)NCC(O)COc2cc(Cl)ccc2C#N)cc1 (stereo not drawn)
Marked response: No

Exam item: Now the compound CN1Cc2cc(C(=O)N3CCC(C4CCNCC4)CC3)ccc2NC(CC(=O)O)C1=O (stereo not drawn)
Marked response: No

----------
Experiment: Cellular Toxicity (caspase-3) H-4-II-E (AID 663);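 as to caspase-3 activation: cells exposed to compound for 16 hr before readout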
Conditions: H-4-II-E rat hepatoma; caspase-3 activation; series mostly up to 92.2 µM
Records with an inconclusive call do not appear. Activity calls are given as the source filed them. The call rests on the fitted dose curve; in most records, active means well fitted activation curve with a large enough effect; inconclusive means small, poorly fitted or top-dose-only effect; inactive means flat fitted curve, though single readings scatter.
Parameter call: string, one of active, inactive

# Structure notation, Label value
rows = [
    ("c1ccc2occc2c1", "inactive"),
]

Exam item: Please indicate how the test categorized Nc1c2ccccc2nc2ccccc12 .
Marked response: active

Exam item: Next: O=C(c1ccccc1)c1ccccc1
Marked response: inactive

----------
Assay: qHTS of pediatric cancer cell lines to identify multiple opportunities for drug repurposing: Primary screen for OHS-50 cells (AID 1347103); also: nearly all actives have a fitted effect of over 40% in size
Settings: OHS-50 osteosarcoma viability, CellTiter-Glo luminescence, 48 h; series mostly up to 57.3 µM
Results filed as inconclusive are left out. Calls of active or inactive are those of the source. The call rests on the fitted dose curve; in most records, active means well fitted cell-killing curve with a large enough effect; inconclusive means small, poorly fitted or top-dose-only effect; inactive means no such curve, though single readings can be large or run the other way.
Give one outcome, nothing more. List: Yes (active), No (inactive)

# Structure notation, Label value
records = [
    ("CC(C)(Oc1ccc(Cl)cc1)C(=O)OCCCOC(=O)C(C)(C)Oc1ccc(Cl)cc1", "No"),
    ("CCN1CCN(C(=O)N[C@@H](C(=O)N[C@@H]2C(=O)N3[C@@H]2SC(C)(C)[C@H]3C(=O)O)c2ccccc2)C(=O)C1=O", "No"),
    ("O=[N+]([O-])c1ccc(O)c2ncccc12", "Yes"),
    ("COc1cc(S(N)(=O)=O)cc(C(=O)O)c1OC", "No"),
]

// switching to the query molecule
Exam item: Test call for this molecule, please: Cc1ccccc1N1CCN(CCc2nnc3n2CCCC3)CC1
Marked response: No
